Experiment: Cell viability (%) by flow cytometry
Assay type: cell-based
Settings: mouse, Balb3T3 cells, Protocol B, shuttle 35 μM, GFP-NLS 5 μM, 10 seconds, read-out: Cell viability (%) (±St. Dev.; n = 3)
Where no end group is shown, it is not given here.
Value Type: viability at 10 s, 35 µM (%)
Report only the number, with the unit % understood.

In: # return recorded viability at 10 s, 35 µM for input HHHHHHKWKLFKKIGAVLKVLTTGYARAAARQARA [His-CM18-PTD4]
Out: 98.4

----------
Assay: Cell toxicity / % cell viability by flow cytometry (cells in total events v. untreated)
Format: cell-based, Human
Conditions: human, HeLa cells, Cell viability (%) (±St. Dev.; n = 3), FIG. 6B; HeLa; GFP 5 μM; shuttle 3 μM; 1 hour; read-out: Cell viability (%) (±St. Dev.; n = 3), FIG. 6B
Where no end group is shown, it is not given here.
Value Type: viability at 1 h, 3 µM

In: # return recorded viability at 1 h, 3 µM for input KWKLFKKIGAVLKVLTTGYGRKKRRQRRRC [CM18-TAT-Cys]
Out: 91%

----------
Assay: Cell toxicity / % cell viability by flow cytometry (cells in total events v. untreated)
Assay type: cell-based, Human
Conditions: human, HeLa cells, Cell viability (%) (±St. Dev.; n = 3), FIG. 22B; HeLa; Protocol B; shuttle 35 μM; GFP-NLS 5 μM; 10 seconds; read-out: Cell viability (%) (±St. Dev.; n = 3), FIG. 22B
Where no end group is shown, it is not given here.
Value Type: viability at 10 s, 35 µM (%)
Report only the number, with the unit % understood.

In: # return recorded viability at 10 s, 35 µM for input HHHHHHKWKLFKKIGAVLKVLTTGYARAAARQARA [His-CM18-PTD4]
Out: 79.6

----------
Experiment: Cell toxicity / % cell viability by flow cytometry (cells in total events v. untreated)
Assay type: cell-based, Human
Settings: human, HeLa cells
Where no end group is shown, it is not given here.
Value Type: viability at 2 min, 10 µM (%)
Report only the number, with the unit % understood.

In: # return recorded viability at 2 min, 10 µM for input LIRLWSHLIHIWFQNRRLKWKKKYARAAARQARA [EB1-PTD4]
Out: 56.6

----------
Test: Cell toxicity / % cell viability by flow cytometry (cells in total events v. untreated)
Type: cell-based, human
Conditions: human, THP-1 cells, THP-1; Protocol C; shuttle 1 μM; GFP-NLS 5 μM; incubation time 15 sec; read-out: Cell viability (%) (±St. Dev.; n = 3)
Where no end group is shown, it is not given here.
Value Type: viability at 15 s, 1 µM (%)
Report only the number, with the unit % understood.

In: # return recorded viability at 15 s, 1 µM for input YGRKKRRQRRRCWEAKLAKALAKALAKHLAKALAKALKACEA (cysteines drawn unpaired) [TAT-KALA]
Out: 84.6

----------
Test: Cell toxicity / % cell viability by flow cytometry (cells in total events v. untreated)
Assay type: cell-based, Human
Conditions: human, HeLa cells, Cell viability (%) (±St. Dev.; n = 3), FIG. 11B; HeLa; TAT-GFP 5 μM; shuttle 5 μM; 1 hour; read-out: Cell viability (%) (±St. Dev.; n = 3), FIG. 11B
Where no end group is shown, it is not given here.
Value Type: viability at 1 h, 5 µM

In: # return recorded viability at 1 h, 5 µM for input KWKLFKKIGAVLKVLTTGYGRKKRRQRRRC [CM18-TAT-Cys]
Out: 95.1%

Data origin: patent US12060387B2
